# Measured Target: ERβ (Homo sapiens)
# Sequence (Q92731 whole entry): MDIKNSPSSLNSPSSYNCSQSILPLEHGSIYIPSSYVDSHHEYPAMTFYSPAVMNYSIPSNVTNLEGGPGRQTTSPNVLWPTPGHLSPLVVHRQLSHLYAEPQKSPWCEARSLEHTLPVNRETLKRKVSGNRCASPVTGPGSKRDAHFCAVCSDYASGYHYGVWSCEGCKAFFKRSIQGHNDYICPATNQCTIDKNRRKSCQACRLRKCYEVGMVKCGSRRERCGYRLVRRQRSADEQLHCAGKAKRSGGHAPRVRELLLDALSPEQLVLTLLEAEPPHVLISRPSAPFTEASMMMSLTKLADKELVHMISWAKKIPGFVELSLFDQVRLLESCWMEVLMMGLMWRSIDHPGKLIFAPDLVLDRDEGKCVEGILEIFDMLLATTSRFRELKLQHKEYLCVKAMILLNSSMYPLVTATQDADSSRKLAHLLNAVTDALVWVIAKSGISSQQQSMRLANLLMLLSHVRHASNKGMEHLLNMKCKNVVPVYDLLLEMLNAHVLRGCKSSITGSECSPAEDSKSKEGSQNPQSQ
# Protocol Summary: ER transcriptional activity
Measure: IC50 (nM)
Note: unit nM is implicit; provide only the numeric part.

What value of measured IC50 is listed for CCN(c1ccc(O)cc1)S(=O)(=O)C1CC2OC1C(c1ccc(O)cc1)=C2c1ccc(NC(=O)C=C(C)C)cc1 (stereo not shown) [Compound 29i] ?
1020

* * *

# Test system: MCF-7 cells
# Protocol Summary: Cell viability assay
# Type: cell-based, human
# Condition Details: Homo sapiens, MCF7, 72 h, read-out: MCF-7 IC50
IC50 values, listed per item
# number only, unit nM dropped from output

compound="O=C(CCl)Nc1ccc(OS(=O)(=O)C2CC3OC2C(c2ccc(O)cc2)=C3c2ccc(O)cc2)cc1 (stereo not drawn) [Compound 26e]" result_units=nM test_value=3420
compound="CC/C(=C(\\c1ccc(O)cc1)c1ccc(OCCN(C)C)cc1)c1ccccc1 [Compound 4-OHT, 4-hydroxytamoxifen, reference compound]" result_units=nM test_value=670

Look up IC50: CCN(c1ccc(OC)cc1)S(=O)(=O)C1CC2OC1C(c1ccc(O)cc1)=C2c1ccc(NC(=O)C=C(C)C)cc1 (stereo not drawn) [Compound 29j]
290

Ok, now C[C@]12CC[C@@H]3c4ccc(O)cc4C[C@@H](CCCCCCCCC[S+]([O-])CCCC(F)(F)C(F)(F)F)[C@H]3[C@@H]1CC[C@@H]2O (stereo partly drawn) [Ful, Fulvestrant, reference compound]
140

Now give it for COc1ccc(N(CC(F)(F)F)S(=O)(=O)C2CC3OC2C(c2ccc(O)cc2)=C3c2ccc(NC(=O)C=C(C)C)cc2)cc1 (stereo not drawn) [Compound 29f] too.
94

Also, CC(C)=CC(=O)Nc1ccc(C2=C(c3ccc(O)cc3)C3OC2CC3S(=O)(=O)N(CC(F)(F)F)c2cccc(O)c2)cc1 (stereo not drawn) [Compound 29h] please.
980
